biological target: AM2 S31 (wild-type serine at position 31 in the M2 protein), influenza virus A/Udorn/72 (Influenza A virus); assay: cell-based; settings: Table 3; 100 uM; Xenopus oocytes, pH 5.5, -20 mV; read-out: S31 OOcyte Inhibition at 100 uM (%)
Measurement Kind: inhibition at 100 µM

Below are worked cases with known answers.
Compound	Measurement Kind	Recorded Value
Cc1csc(CNC23CC4CC(CC(C4)C2)C3)n1 [Example 68b]	inhibition at 100 µM	31 to 95%
Clc1ccccc1-c1cc(CNC23CC4CC(CC(C4)C2)C3)no1 [Example 45b]	inhibition at 100 µM	0 to 30%
Oc1cc(F)ccc1CNC12CC3CC(CC(C3)C1)C2 [Example 6b]	inhibition at 100 µM	31 to 95%

Ask | For the compound CSc1ccc(-c2cc(CNC34CC5CCC(CC(C5)C3)C4)no2)cc1 [Example 91b] , give its measured inhibition at 100 µM value.
Reply | 0 to 30%

Ask | For the compound c1ccc(-c2cnc(CNC34CC5CC(CC(C5)C3)C4)[nH]2)cc1 [Example 53b] , give its measured inhibition at 100 µM value.
Reply | 0 to 30%

----------
target: AM2 S31 (wild-type serine at position 31 in the M2 protein), influenza virus A/Udorn/72 (Influenza A virus, UniProt P0DOF5); assay: cell-based; settings: Table 1; 100 uM; Xenopus oocytes, pH 5.5, -20 mV; read-out: S31 OOcyte Inhibition at 100 uM (%)
Sequence (P0DOF5 whole entry, looked up): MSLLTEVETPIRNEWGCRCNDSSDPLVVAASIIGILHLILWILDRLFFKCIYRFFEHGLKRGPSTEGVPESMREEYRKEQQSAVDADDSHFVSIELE
Recorded inhibition at 100 µM, one value per entry.

Below are worked cases with known answers.
Molecule	inhibition at 100 µM
CC1(C)CCC(NCc2ccc(O)cc2O)CC1	31 to 95%
Clc1c(CNC23CC4CC(CC(C4)C2)C3)nc2sccn12	0 to 30%
c1cc(CNC23CC4CC(CC(C4)C2)C3)ccn1	31 to 95%
c1nc2ccc(CNC34CC5CC(CC(C5)C3)C4)cc2[nH]1	0 to 30%
COC(=O)C(Cc1cnc[nH]1)NCC12CC3CC(CC(C3)C1)C2 (stereo not drawn)	0 to 30%

Ask | For the molecule c1ccc2sc(CNC34CC5CC(CC(C5)C3)C4)cc2c1 , give its measured inhibition at 100 µM value.
Reply | 0 to 30%

Ask | For the molecule c1cc(COc2ccc(CNC34CC5CC(CC(C5)C3)C4)cc2)co1 , give its measured inhibition at 100 µM value.
Reply | 31 to 95%

Ask | For the molecule Oc1ccc(CNC23CC4CC(CC2C4)C3)c(O)c1 , give its measured inhibition at 100 µM value.
Reply | 31 to 95%

Ask | For the molecule Oc1ccc(CNC23CC4CC(CC(C4)C2)C3)cc1Cl , give its measured inhibition at 100 µM value.
Reply | 31 to 95%

----------
target: AM2 S31 (wild-type serine at position 31 in the M2 protein), influenza virus A/Udorn/72 (Influenza A virus, UniProt P0DOF5); test: cell-based; details: 100 uM; Xenopus oocytes; activity range class; read-out: S31 OOcyte Inhibition at 100 uM (%)
Recorded inhibition at 100 µM, one value per entry.

Ask | For the molecule Cc1nc(CNC23CC4CC(CC(C4)C2)C3)c[nH]1 [Example 99a] , give its measured inhibition at 100 µM value.
Reply | 0 to 30%

Ask | For the molecule c1coc(-c2nc(CNC34CC5CC(CC(C5)C3)C4)no2)c1 [Example 160a] , give its measured inhibition at 100 µM value.
Reply | 0 to 30%

Ask | For the molecule c1ccc(-c2ncc(CNC34CC5CC(CC(C5)C3)C4)cn2)nc1 [Example 64a] , give its measured inhibition at 100 µM value.
Reply | 0 to 30%

----------
biological target: AM2 S31 (wild-type serine at position 31 in the M2 protein), influenza virus A/Udorn/72 (Influenza A virus, UniProt P0DOF5); experiment: cell-based; conditions: 100 uM; Xenopus oocytes; activity range class; read-out: S31 OOcyte Inhibition at 100 uM (%)
Measurement Kind: inhibition at 100 µM

Below are worked cases with known answers.
Molecule	Measurement Kind	Recorded Value
c1csc(CNC23CC4CC(CC(C4)C2)C3)n1 [Example 71a, Adamantan-1-yl-thiazol-2-ylmethyl-amine]	inhibition at 100 µM	31 to 95%
C1CCC(c2nc(CNC34CC5CC(CC(C5)C3)C4)no2)C1 [Example 109a]	inhibition at 100 µM	0 to 30%
Oc1c(CNC23CC4CC(CC(C4)C2)C3)ccc2ccccc12 [Example 53a]	inhibition at 100 µM	31 to 95%
Clc1cccc2cc(CNC34CC5CC(CC(C5)C3)C4)sc12 [Example 183a]	inhibition at 100 µM	31 to 95%
Cc1ncc(CN(Cc2cnc(C)s2)C23CC4CC(CC(C4)C2)C3)s1 [Example 202a]	inhibition at 100 µM	0 to 30%
c1ccc2cc(COc3ccc(CNC45CC6CC(CC(C6)C4)C5)cc3)ccc2c1 [Example 38a]	inhibition at 100 µM	0 to 30%

Ask | For the molecule Brc1ccc(-c2cc(CNC34CC5CC(CC(C5)C3)C4)no2)cc1 [Example 121a] , give its measured inhibition at 100 µM value.
Reply | 0 to 30%

Ask | For the molecule Brc1ccc(CNC23CC4CC(CC(C4)C2)C3)[nH]1 [Example 88a] , give its measured inhibition at 100 µM value.
Reply | 31 to 95%

Ask | For the molecule Cc1cc(CNC23CC4CC(CC(C4)C2)C3)sc1Br [Example 77a] , give its measured inhibition at 100 µM value.
Reply | 31 to 95%

----------
Recorded inhibition at 100 µM, one value per entry.
target: AM2 S31 (wild-type serine at position 31 in the M2 protein), influenza virus A/Udorn/72 (Influenza A virus); experiment: cell-based; settings: Table 1; 100 uM; Xenopus oocytes, pH 5.5, -20 mV; read-out: S31 OOcyte Inhibition at 100 uM (%)

Below are worked cases with known answers.
Molecule	Recorded Value
COc1ccc(F)c(CNC23CC4CC(CC(C4)C2)C3)c1	31 to 95%
CSc1ccc(CNC23CC4CC(CC(C4)C2)C3)c(SC)c1	0 to 30%
Oc1ccc(CNC23CC4CC(CC(C4)C2)C3)cc1F	31 to 95%
Fc1ccc(C(F)(F)F)cc1CNC12CC3CC(CC(C3)C1)C2	0 to 30%
Cc1nn2cc(CNC3C4CC5CC(C4)CC3C5)nc2s1 (centres unmarked)	0 to 30%
c1cn2cc(CNC34CC5CC(CC(C5)C3)C4)nc2s1	31 to 95%
COc1ccc(CN(C)C23CC4CC(CC(C4)C2)C3)cc1	31 to 95%
CC(=O)Oc1ccc(CNC23CC4CC(CC(C4)C2)C3)cc1	31 to 95%

Ask | For the molecule NC(=O)COc1ccc(CNC23CC4CC(CC(C4)C2)C3)cc1 , give its measured inhibition at 100 µM value.
Reply | 0 to 30%

Ask | For the molecule CSc1ccc(CNC2C3CC4CC(C3)CC2C4)cc1 (centres unmarked) , give its measured inhibition at 100 µM value.
Reply | 0 to 30%

Ask | For the molecule c1cc2cn[nH]c2cc1CNC12CC3CC(CC(C3)C1)C2 , give its measured inhibition at 100 µM value.
Reply | 31 to 95%

Ask | For the molecule CC(C)(C)OC(=O)Nc1ccc(CNC23CC4CC(CC(C4)C2)C3)cc1 , give its measured inhibition at 100 µM value.
Reply | 0 to 30%

Ask | For the molecule c1cnn(-c2ccc(CNC34CC5CC(CC(C5)C3)C4)cc2)c1 , give its measured inhibition at 100 µM value.
Reply | 0 to 30%

----------
biological target: AM2 S31 (wild-type serine at position 31 in the M2 protein), influenza virus A/Udorn/72 (Influenza A virus, UniProt P0DOF5); assay: cell-based; details: Table 1; 100 uM; Xenopus oocytes, pH 5.5, -20 mV; read-out: S31 OOcyte Inhibition at 100 uM (%)
Recorded inhibition at 100 µM, one value per entry.

Below are worked cases with known answers.
Compound	inhibition at 100 µM
COc1cc(O)cc(OC)c1CNC12CC3CC(CC(C3)C1)C2	31 to 95%
Oc1cccc(CNC23CC4CC(CC(C4)C2)C3)c1	31 to 95%
O=[N+]([O-])c1ccc(CNC23CC4CC(CC(C4)C2)C3)cc1	31 to 95%
c1ccc2nc(CNC34CC5CC(CC(C5)C3)C4)ccc2c1	31 to 95%
c1cc2sc(CNC34CC5CC(CC(C5)C3)C4)cc2s1	31 to 95%

Ask | For the compound c1cc2cc(CNC34CC5CC(CC(C5)C3)C4)sc2o1 , give its measured inhibition at 100 µM value.
Reply | 31 to 95%

Ask | For the compound Oc1cc(OCc2ccccc2)ccc1CNC12CC3CC(CC(C3)C1)C2 , give its measured inhibition at 100 µM value.
Reply | 31 to 95%
